Data provenance is the supplement of paper PMC10567573.

For each of the variants below, state its protein stability index.
B1: PTPN9 (parent)
chain: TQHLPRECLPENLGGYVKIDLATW

- Variants of: B1
- assay summary: protein stability index of a GFP-peptide fusion (GPS, HEK-293T) (PSI 1-6); higher = more stable;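 note: lentivirally expressed fusions sorted by FACS into six bins by GFP to DsRed ratio, PSI derived from sequencing read proportions per bin multiplied by bin number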
- experimental parameters: c terminus: a fixed tail appended
Form: value (number only, do not type unit).

Given the entry L4Y , report its measured protein stability index.
1.99

What value of measured protein stability index is listed for T23Y ?
1.71

// lookup protein stability index for Y16I
2.29

Report protein stability index for H3M please.
1.92

Any idea what protein stability index was measured for P5H ?
1.95

Need protein stability index, item T23R
1.89

Sample H3Q — what was its protein stability index?
1.91

Any idea what protein stability index was measured for I19Y ?
2.46

For the variant shown here, T23C , give the reported protein stability index.
1.38

Please report the recorded protein stability index for G15F .
2.44

Reported protein stability index, variant W24L : ____
2.12

Fill in: protein stability index of L13Y is ___
1.91

For the variant Y16N , what protein stability index is on record?
3.17

// returns reported protein stability index for input L9S
1.75

Given P5T , state its recorded protein stability index.
1.92

// lookup protein stability index for W24H
2.66

Endpoint output: protein stability index of N12P . Value?
1.49

So what's the measured protein stability index for this one? H3N
2.03

Which protein stability index value belongs to H3T ?
2.45

Endpoint output: protein stability index of E7Q . Value?
1.63

Record request: protein stability index value, item Y16C
2.48

protein stability index for L4M ?
2.38

Reported protein stability index for E11T : what is it?
1.45

Item G15A has what recorded protein stability index?
1.67

Which protein stability index reading was recorded for the variant P5W ?
2.33

Please report the recorded protein stability index for L4G .
1.96

Need protein stability index of D20N , thanks.
1.78

What value of protein stability index has been recorded for this entry: Y16P
3.04

Consider the variant shown here: E11F What is its recorded protein stability index?
1.8

# get_value(readout='protein stability index', item= Q2Y )
2.48

Fill in the blank: the reported protein stability index of V17C is ____.
1.89

Reported protein stability index, variant T1Y : ____
2.31

Bench note: what protein stability index did A22V show?
2.08

Any idea what its protein stability index is? The variant is P5F
1.82

Could you share which protein stability index value was measured for V17S ?
2.57

For D20S , what is its reported protein stability index?
1.92

Which protein stability index reading was recorded for the variant L13V ?
2.17

Entry under review: Y16A . Reported protein stability index?
3.01

Fill blank: measured protein stability index of the variant T23S is ____.
2.02

Which protein stability index reading was recorded for the variant P10K ?
1.77

What value of protein stability index has been reported for the following variant? W24N
3.51

What value of protein stability index has been recorded for this entry: T1N
2.18

What does the data say about its protein stability index? Entry: P10L
1.55

So what's the measured protein stability index for this one? P10V
1.82

Could you tell me which protein stability index is on file for W24E ?
4.07

Would you kindly share the measured protein stability index for P5V ?
1.57
